run-description: inhibitors of Chlamydomonas gravitaxis, primary screen, whole organism, Chlamydomonas reinhardtii, WT vs cilia-less mutant, absorbance, 96-well (AID 463189);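 further: 0% = wild type cc124 cells in DMSO and 100% = ciliumless bld1 mutant cells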
measurement-setup: OD600 absorbance, 2 days, at 10 µM, stronger effect = higher value
The source made the active and inactive calls.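 How the source made its calls: active means inhibition at or above 50% relative to wild type and mutant plate controls; inactive means inhibition below 50%.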
Listed below: inhibition values for each entry.
endpoint-label: inhibition

>  <compound>
C=CCn1cnc2c(c1=O)c1nc3ccccc3nc1n2-c1ccc(C)cc1

>  <endpoint-label>
inhibition

>  <measured-result>
15.4% (inactive)

$$$$
>  <compound>
CN1CCc2c(sc3c2C(=O)NC(c2ccco2)N3)C1 (stereo unspecified)

>  <endpoint-label>
inhibition

>  <measured-result>
7.66% (inactive)

$$$$
>  <compound>
O=C(O)CCCCCCC1C(=O)NC(=O)N1CCC(O)C1CCCCC1 (stereo unspecified)

>  <endpoint-label>
inhibition

>  <measured-result>
1.26% (inactive)

$$$$
>  <compound>
Cc1nnc(NCc2n[nH]c(=O)c3ccccc23)c2ccccc12

>  <endpoint-label>
inhibition

>  <measured-result>
-15.8% (inactive)

$$$$
>  <compound>
N#CC1(P(=O)(c2ccccc2)c2ccccc2)CC1

>  <endpoint-label>
inhibition

>  <measured-result>
5.77% (inactive)

$$$$
>  <compound>
CCc1nc(SCc2cccnc2)c(C#N)cc1C

>  <endpoint-label>
inhibition

>  <measured-result>
50.3% (active)

$$$$
>  <compound>
COc1cc(-c2nn3c(C4CCCCC4)nnc3s2)cc(OC)c1OC

>  <endpoint-label>
inhibition

>  <measured-result>
12.1% (inactive)

$$$$
>  <compound>
Cc1ccc(C(C)C)c(OCCNc2nc3c(c(=O)n(C)c(=O)n3C)n2C)c1

>  <endpoint-label>
inhibition

>  <measured-result>
-2.79% (inactive)

$$$$
>  <compound>
Cc1ccc(OCc2nnc(NC(=O)c3ccco3)s2)c(C)c1

>  <endpoint-label>
inhibition

>  <measured-result>
-4.85% (inactive)

$$$$
>  <compound>
CCOc1cccc(-c2nnc3sc(C4CCCCC4)nn23)c1

>  <endpoint-label>
inhibition

>  <measured-result>
36.1% (inactive)

$$$$
>  <compound>
Cc1ccc2[nH]c3c(N4CCN(Cc5ccccc5)CC4)ncnc3c2c1

>  <endpoint-label>
inhibition

>  <measured-result>
38.4% (inactive)

$$$$
>  <compound>
COc1ccc(/C=C/C2=NC(=C\N(C)C)/C(=O)O2)cc1

>  <endpoint-label>
inhibition

>  <measured-result>
-3.9% (inactive)

$$$$
>  <compound>
CCC(=O)c1ccc(O)cc1

>  <endpoint-label>
inhibition

>  <measured-result>
-6.67% (inactive)

$$$$
>  <compound>
COc1cccc(NC(=O)CC2SC(=Nc3ccccc3)NC2=O)c1 (stereo unspecified)

>  <endpoint-label>
inhibition

>  <measured-result>
32.2% (inactive)

$$$$
>  <compound>
COc1cc(C2C(C(=O)c3ccc(C)o3)=C(O)C(=O)N2c2cc(C)on2)cc(OC)c1OC (stereo unspecified)

>  <endpoint-label>
inhibition

>  <measured-result>
-18.1% (inactive)

$$$$
>  <compound>
CCOC(=O)c1c(C(C#N)C#N)cc(C)nc1C

>  <endpoint-label>
inhibition

>  <measured-result>
9.41% (inactive)

$$$$
>  <compound>
CCOC(=O)CSc1nc(N)c(C#N)c(-c2ccc(OC)cc2)c1C#N

>  <endpoint-label>
inhibition

>  <measured-result>
-7.05% (inactive)

$$$$
>  <compound>
CC(=O)Nn1cnc2c(c1=O)C1(CCCC1)Cc1ccccc1-2

>  <endpoint-label>
inhibition

>  <measured-result>
43% (inactive)

$$$$
>  <compound>
C(=N\n1cnnc1)/c1cccnc1

>  <endpoint-label>
inhibition

>  <measured-result>
0.59% (inactive)

$$$$
>  <compound>
CC(=O)N1CC=C2C(C#N)=C(N)C(C#N)(C#N)[C@H](c3ccoc3)[C@H]2C1

>  <endpoint-label>
inhibition

>  <measured-result>
-0.734% (inactive)

$$$$
>  <compound>
COC(=O)C1=C(C)N=C2SC(C)C(=O)N2C1c1cccs1 (stereo unspecified)

>  <endpoint-label>
inhibition

>  <measured-result>
14.7% (inactive)

$$$$
